# Test system: human keratinocytes (HaCaT)
# METHOD: Resazurin assay, 3-day treatment
# Assay type: cell-based
# RECORDED_CONDITIONS: 10 µM
# Method: Skin fibroblasts (BJ) were obtained from the American Type Culture Collection (ATCC, Manassas, VA), while human keratinocytes (HaCaT) were sourced from the German Cancer Research Center in Heidelberg, Germany. […] We assessed the effect of 3-day compound treatments on cell viability using a resazurin reduction assay measuring mitochondrial activity. […] Fluorescence (ex = 570 nm, em = 610 nm) was measured after 3 h of incubation. […]
REPORTED_METRIC: Average viability (signal intensity relative to control)
Enter a number only.

Field: example entries. Status: answers known.
SMILES_DATA	VAL
CC(C)c1ccc(-c2ccc3[nH]ccc3c2)cc1	0.98
CCOc1cccc(-c2ccc3[nH]ccc3c2)c1	0.97
FC(F)(F)Oc1ccc(-c2ccc3[nH]ccc3c2)cc1	0.96
CC(C)Oc1cc(-c2ccc3[nH]ccc3c2)ccc1Cl	0.78
CCOc1cc(-c2ccc3[nH]ccc3c2)ccc1Cl	0.93

Lookup result for Fc1ccc(-c2ccc3[nH]ccc3c2)cc1 ; measured Average viability (signal intensity relative to control): 0.97

Lookup result for CCCOc1ccc(-c2ccc3[nH]ccc3c2)cc1 ; measured Average viability (signal intensity relative to control): 0.97

Lookup result for Clc1ccc(-c2ccc3[nH]ccc3c2)cc1 ; measured Average viability (signal intensity relative to control): 1.01

Lookup result for CCCOc1cccc(-c2ccc3[nH]ccc3c2)c1 ; measured Average viability (signal intensity relative to control): 1.06

Lookup result for CC(C)Oc1cccc(-c2ccc3[nH]ccc3c2)c1 ; measured Average viability (signal intensity relative to control): 1.01

Lookup result for Oc1cccc(-c2ccc3[nH]ccc3c2)c1 ; measured Average viability (signal intensity relative to control): 1.02
